src = patent US9045445B2

Measured IC50 of individual entries
target: UniProtKB Q9Y345; experiment: [14C]glycine uptake assay in HEK-GlyT-2 transfected cells; details: HEK-GlyT-2 cells
Sequence (Q9Y345 whole entry): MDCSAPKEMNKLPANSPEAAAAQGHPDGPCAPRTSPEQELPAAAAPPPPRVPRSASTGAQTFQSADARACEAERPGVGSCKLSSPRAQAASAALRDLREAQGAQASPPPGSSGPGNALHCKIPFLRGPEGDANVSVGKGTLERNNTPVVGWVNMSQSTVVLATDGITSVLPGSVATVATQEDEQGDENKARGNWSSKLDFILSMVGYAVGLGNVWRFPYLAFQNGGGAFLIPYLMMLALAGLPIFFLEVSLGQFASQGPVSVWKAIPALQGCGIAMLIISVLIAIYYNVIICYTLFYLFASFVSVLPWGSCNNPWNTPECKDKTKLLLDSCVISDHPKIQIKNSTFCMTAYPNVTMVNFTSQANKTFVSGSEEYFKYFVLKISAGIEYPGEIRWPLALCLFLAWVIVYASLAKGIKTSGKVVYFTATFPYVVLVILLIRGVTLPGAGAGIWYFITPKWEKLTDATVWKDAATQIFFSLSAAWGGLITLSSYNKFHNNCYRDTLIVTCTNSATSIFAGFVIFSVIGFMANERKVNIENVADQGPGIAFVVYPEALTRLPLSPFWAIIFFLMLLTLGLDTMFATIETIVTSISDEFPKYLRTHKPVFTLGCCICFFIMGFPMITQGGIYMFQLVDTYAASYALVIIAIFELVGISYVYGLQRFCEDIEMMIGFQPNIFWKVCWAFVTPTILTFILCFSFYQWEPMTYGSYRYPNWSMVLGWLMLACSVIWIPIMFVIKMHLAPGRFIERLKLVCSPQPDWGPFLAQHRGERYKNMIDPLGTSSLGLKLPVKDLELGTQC
Counter-ions that a name gives are not always drawn.

These recorded examples may help you get a feel for the data.
[
  {
    "molecule": "Cn1cc(S(=O)(=O)N2CCN(C3(CNC(=O)c4ccc(Cl)cc4Cl)CCCC3)CC2)nn1 [compound 110, Hydrochloride]",
    "system-tested": "UniProtKB Q9Y345",
    "IC50": "> 75 µM"
  },
  {
    "molecule": "Cn1cnc(S(=O)(=O)N2CCN(C3(CNC(=O)c4c(Cl)cccc4Cl)CCCCCC3)CC2)c1 [compound 106, Hydrochloride]",
    "system-tested": "UniProtKB Q9Y345",
    "IC50": "> 75 µM"
  },
  {
    "molecule": "CC(O)CS(=O)(=O)N1CCN(C2(CNC(=O)c3ccc(C(F)(F)F)cc3Cl)CCC(F)(F)CC2)CC1 (centres unmarked) [compound 252, Hydrochloride]",
    "system-tested": "UniProtKB Q9Y345",
    "IC50": "> 75 µM"
  },
  {
    "molecule": "COc1cccc(F)c1C(=O)NCC1(N2CCN(S(=O)(=O)CC3CC3)CC2)CCCCC1 [compound 83, Hydrochloride]",
    "system-tested": "UniProtKB Q9Y345",
    "IC50": "> 75 µM"
  },
  {
    "molecule": "Cn1cnc(S(=O)(=O)N2CCN(C3(CNC(=O)c4ccc(F)cc4Cl)CCC(F)(F)CC3)CC2)c1 [compound 166, Hydrochloride]",
    "system-tested": "UniProtKB Q9Y345",
    "IC50": "> 75 µM"
  },
  {
    "molecule": "O=C(NCC1(N2CCC(S(=O)(=O)CC3CC3)CC2)CCCCC1)c1ccc(Cl)cc1Cl [compound 200, Hydrochloride]",
    "system-tested": "UniProtKB Q9Y345",
    "IC50": "> 75 µM"
  }
]

In: Item under review: CCS(=O)(=O)N1CCN(C2(CNC(=O)c3c(C)cc(F)cc3OC)CCCCCC2)CC1 [compound 87, Hydrochloride] . Reported IC50?
Out: > 75 µM

In: I would be grateful if you could share the reported IC50 for CCCS(=O)(=O)N1CCN(C2(CNC(=O)c3c(OC)cc(F)cc3SC)CCOCC2)CC1 [compound 122, Hydrochloride] .
Out: > 75 µM

In: Fill in: IC50 of Cn1cc(S(=O)(=O)N2CCN(C3(CNC(=O)c4c(F)cc(F)cc4F)CCC(F)(F)CC3)CC2)nn1 [compound 234, Hydrochloride] is ___
Out: > 75 µM

In: Requested read-out: IC50. Entry: CCCS(=O)(=O)N1CCN(C2(CNC(=O)c3c(F)cc(Cl)cc3F)CCC(F)(F)CC2)CC1 [compound 259, Hydrochloride]
Out: > 75 µM

In: Recorded IC50 for CCCS(=O)(=O)N1CCN(C2(CNC(=O)c3c(C)cc(F)cc3OC)CCOCC2)CC1 [compound 121, Hydrochloride] , please?
Out: > 45 µM

In: I am curious: what IC50 value has been reported for CCCS(=O)(=O)N1CCN(C2(CNC(=O)c3ccc(Cl)cc3OC)CCCCCC2)CC1 [compound 53, Hydrochloride] ?
Out: > 75 µM

In: Request the reported IC50 associated with CCCS(=O)(=O)N1CCN(C2(CNC(=O)c3c(N)cccc3Cl)CCN(C)CC2)CC1 [compound 116, Hydrochloride]
Out: > 75 µM

In: Return reported IC50; argument: CCCS(=O)(=O)N1CCN(C2(CNC(=O)c3c(OC)cc(F)cc3SC)CCCC2)CC1 [compound 74, Hydrochloride]
Out: > 75 µM
